The measurements presented in this section are drawn from ChEMBL document CHEMBL3879915.

molecular target: PRMT5/MEP50 complex (Homo sapiens, UniProt O14744); test: Inhibition of recombinant human fetal brain FLAG-tagged PRMT5/full length human testis 6His-tagged MEP50 expressed in baculovirus infected insect Sf9 cells using human histone H4 (1 to 15 residues) as substrate preincubated for 30 mins followed by [3H]-SAM addition
Sequence (O14744 whole entry, the tested form may be a part): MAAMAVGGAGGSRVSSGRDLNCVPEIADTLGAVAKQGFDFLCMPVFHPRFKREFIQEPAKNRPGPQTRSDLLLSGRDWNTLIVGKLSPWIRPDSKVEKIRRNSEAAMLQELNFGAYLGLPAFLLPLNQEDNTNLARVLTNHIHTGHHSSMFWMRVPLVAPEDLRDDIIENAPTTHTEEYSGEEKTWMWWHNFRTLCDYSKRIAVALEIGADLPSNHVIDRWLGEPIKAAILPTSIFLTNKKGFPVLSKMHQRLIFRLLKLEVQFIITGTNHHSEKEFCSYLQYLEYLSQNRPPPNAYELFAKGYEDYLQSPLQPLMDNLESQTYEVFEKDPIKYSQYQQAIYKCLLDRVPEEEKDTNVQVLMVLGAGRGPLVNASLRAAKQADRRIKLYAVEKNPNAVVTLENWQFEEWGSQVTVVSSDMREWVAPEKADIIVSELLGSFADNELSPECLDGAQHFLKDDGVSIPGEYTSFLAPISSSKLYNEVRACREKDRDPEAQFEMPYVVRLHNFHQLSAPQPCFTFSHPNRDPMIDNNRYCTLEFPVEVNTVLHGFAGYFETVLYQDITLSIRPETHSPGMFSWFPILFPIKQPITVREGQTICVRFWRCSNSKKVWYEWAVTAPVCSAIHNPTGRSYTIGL
Sequence (Q9BQA1 whole entry, further chain, the tested form may be a part): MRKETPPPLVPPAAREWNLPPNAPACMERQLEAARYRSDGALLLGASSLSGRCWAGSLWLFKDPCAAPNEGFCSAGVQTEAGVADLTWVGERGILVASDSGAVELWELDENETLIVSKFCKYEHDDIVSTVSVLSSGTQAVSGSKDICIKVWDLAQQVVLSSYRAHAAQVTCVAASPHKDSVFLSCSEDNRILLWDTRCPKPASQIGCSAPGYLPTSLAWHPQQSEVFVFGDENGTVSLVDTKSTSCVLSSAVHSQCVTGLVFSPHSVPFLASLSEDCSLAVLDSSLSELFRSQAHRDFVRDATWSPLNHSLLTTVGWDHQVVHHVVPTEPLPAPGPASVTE
IC50 values, listed per item

# IC50 measured on PRMT5/MEP50 complex (Homo sapiens, UniProt O14744) for item O=C(NC[C@@H](O)CN1CCc2ccccc2C1)c1ccccc1 = 1 to 10 µM

# IC50 measured on PRMT5/MEP50 complex (Homo sapiens, UniProt O14744) for item OC(COc1cccc(-c2cccc(Cl)c2)c1)CN1CCc2ccccc2C1 (configuration not stated) = 1 to 10 µM

# IC50 measured on PRMT5/MEP50 complex (Homo sapiens, UniProt O14744) for item CCOC(=O)C1c2ccccc2CCN1CC(O)COc1cccc(-c2ccc3ncn(C)c3c2)c1 (configuration not stated) = > 40 µM

# IC50 measured on PRMT5/MEP50 complex (Homo sapiens, UniProt O14744) for item O=C(COc1cccc2cccnc12)NCC(O)CN1CCc2ccccc2C1 (configuration not stated) = < 0.1 µM

# IC50 measured on PRMT5/MEP50 complex (Homo sapiens, UniProt O14744) for item CN1CCN(c2ccccc2OCC(=O)NC[C@H](O)CN2CCc3ccccc3C2)CC1 = < 0.1 µM

Others:
# IC50 measured on PRMT5/MEP50 complex (Homo sapiens, UniProt O14744) for item O=C(COc1cccc(F)c1)NCC(O)CN1CCc2ccccc2C1 (configuration not stated) = 0.101 to 1 µM

# IC50 measured on PRMT5/MEP50 complex (Homo sapiens, UniProt O14744) for item O=C(COc1ccccc1)NC[C@H](O)CN1CCc2ccccc2C1 = 0.101 to 1 µM

# IC50 measured on PRMT5/MEP50 complex (Homo sapiens, UniProt O14744) for item OC(COC1CCN(Cc2ccccc2)CC1)CN1CCc2ccccc2C1 (configuration not stated) = 1 to 10 µM

# IC50 measured on PRMT5/MEP50 complex (Homo sapiens, UniProt O14744) for item OC(COc1cccc(-c2ccccc2)c1)CN1CCc2ccccc2C1 (configuration not stated) = 0.101 to 1 µM

# IC50 measured on PRMT5/MEP50 complex (Homo sapiens, UniProt O14744) for item Cn1nccc1-c1cccc(CC(=O)NCC(O)CN2CCc3ccccc3C2)c1 (configuration not stated) = 0.101 to 1 µM

# IC50 measured on PRMT5/MEP50 complex (Homo sapiens, UniProt O14744) for item CS(=O)(=O)Nc1ccc(OCC(=O)NCC(O)CN2CCc3ccccc3C2)cc1 (configuration not stated) = 0.101 to 1 µM

# IC50 measured on PRMT5/MEP50 complex (Homo sapiens, UniProt O14744) for item O=C(COc1cccc2[nH]c(=O)cnc12)NCC(O)CN1CCc2ccccc2C1 (configuration not stated) = 1 to 10 µM

# IC50 measured on PRMT5/MEP50 complex (Homo sapiens, UniProt O14744) for item CC(=O)Nc1cccnc1OCC(=O)NCC(O)CN1CCc2ccccc2C1 (configuration not stated) = > 50 µM

# IC50 measured on PRMT5/MEP50 complex (Homo sapiens, UniProt O14744) for item OC(COCc1ccncc1)CN1CCc2ccccc2C1 (configuration not stated) = 10 to 40 µM

# IC50 measured on PRMT5/MEP50 complex (Homo sapiens, UniProt O14744) for item OC(CNc1cc(-c2ccc3ncn(C4CCNC4)c3c2)ccn1)CN1CCc2ccccc2C1 (configuration not stated) = < 0.1 µM
